Below, each of the compounds is paired with its reported EC50 value.
target_of_assay: human mAChR M1 (Homo sapiens, UniProt P11229)
Sequence (P11229 whole entry): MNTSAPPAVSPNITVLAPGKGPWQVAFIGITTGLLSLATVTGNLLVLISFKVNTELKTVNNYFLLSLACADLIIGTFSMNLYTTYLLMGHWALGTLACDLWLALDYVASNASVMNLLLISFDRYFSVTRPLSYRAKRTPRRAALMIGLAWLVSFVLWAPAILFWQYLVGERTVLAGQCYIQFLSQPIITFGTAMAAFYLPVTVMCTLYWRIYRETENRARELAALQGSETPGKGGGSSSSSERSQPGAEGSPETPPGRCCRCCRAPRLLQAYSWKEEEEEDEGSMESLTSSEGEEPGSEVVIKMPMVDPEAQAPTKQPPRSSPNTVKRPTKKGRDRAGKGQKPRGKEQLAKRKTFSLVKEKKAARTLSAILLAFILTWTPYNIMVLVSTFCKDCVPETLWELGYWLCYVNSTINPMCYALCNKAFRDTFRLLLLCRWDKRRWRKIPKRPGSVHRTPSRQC
assay_comment: mAChR M1 cell-based functional assay (calcium mobilization, Fluo-4, FDSS)
protocol_conditions: CHO-K1 cells stably expressing hM1; positive allosteric modulator activity as increase in the EC20 acetylcholine response
Give the value, in units of nM, as a plain number.

Solved entries (count: 8):
> print(dat)
                                   compound  measure  obs.value
1  CC1COCCC1NC(=O)c1cc(Cc2ccc(-c3cnn(C)c3)nc2)c2ccsc2n1 (stereo not shown) [Compound 118]     EC50         70
2  COCC(C)NC(=O)c1cc(Cc2ccc(-c3cnn(C)c3)nc2)c2ccsc2n1 (stereo not shown) [Compound 128]     EC50        160
3  Cn1cc(-c2ccc(Cc3cc(C(=O)NC4CCOCC4(C)C)nc4sccc34)cn2)cn1 (stereo not shown) [Compound 117]     EC50        150
4  O=C(N[C@H]1CCOC1)c1cc(Cc2ccc(-n3cccn3)cc2)c2ccsc2n1 [Compound 77]     EC50        390
5  Cn1ccc(-c2ccc(Cc3cc(C(=O)NC4COC4)nc4c3ccn4C)cc2)n1 [Compound 44]     EC50       6280
6  Cn1ccc2c(Cc3ccc(-c4cscn4)cc3)cc(C(=O)NC3CC4(COC4)C3)nc21 [Compound 23]     EC50        140
7  Cn1ncc2c(Cc3ccc(-c4cscn4)cc3)cc(C(=O)N[C@H]3CCCC[C@@H]3O)nc21 [Compound 28]     EC50        130
8  Cn1ccc2c(Cc3ccc(-c4cscn4)cc3)cc(C(=O)NC3CCOCC3)nc21 [Compound 2]     EC50        230

Record Cn1cc(-c2ccc(Cc3cc(C(=O)NC4CCOCC4)nc4c3ccn4C)cn2)cn1 [Compound 47] , field EC50: 180
